# TESTED TARGET: T1, human Claudin 18.2 (CLDN 18.2) expressed on HEK293 / HEK293T cells (human)
# T1 construct: Full-length CLDN18.2 on transiently or stably transfected HEK293/HEK293T cells; also called CLD18.2
# T1 sequence (chain, as listed by the source limits assumed): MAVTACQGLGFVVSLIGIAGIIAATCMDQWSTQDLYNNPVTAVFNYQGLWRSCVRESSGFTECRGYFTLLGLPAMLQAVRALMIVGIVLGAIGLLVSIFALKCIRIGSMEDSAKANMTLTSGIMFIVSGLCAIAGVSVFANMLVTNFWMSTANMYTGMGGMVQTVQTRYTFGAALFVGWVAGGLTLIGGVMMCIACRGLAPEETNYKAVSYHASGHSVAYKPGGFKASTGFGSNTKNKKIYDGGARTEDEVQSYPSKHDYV
# ASSAY DETAILS: cell-based ELISA (InCell Elisa) on fixed HEK293_CLDN18.2 cells, OD450; Kd table under the graph, no unit in the table, unit from the x axis log[antibody] ug/ml
Recorded Kd values for a group of binders are listed next.
Unit µg/mL implied. Number only.

INPUT: Recorded Kd of humanized anti-Claudin 18.2 antibody h5C9oan (antibody, human IgG1, kappa, V domains shown) VH: EVQLVESGGGLVQPGGSLRLSCAVSGYTFSMNWVRQAPGKGLEWVAWINMYTGEPTYADDFKGRFTISRDDSKNTLYLQMNSLRAEDTAVYYCARSSRGNGFDYWGQGTLVTVSS VL: DIQMTQSPSSLSASVGDRVTITCKSSQSLLNSGNQKSYLTWYQQKPGKAPKLLIYWASTLESGVPSRFSGSGSGTDYTLTISSLQPEDFATYYCQNAYFFPFTFGQGTKVEIKR , please.
OUTPUT: 0.168

INPUT: Same read-out for humanized anti-Claudin 18.2 antibody h5C9oao (antibody, human IgG1, kappa, V domains shown) VH: EVQLVESGGGLVQPGGSLRLSCAVSGYTFSMNWVRQAPGKGLEWVAWINMYTGEPTYADDFKGRFTISRDDSKNTLYLQMNSLRAEDTAVYYCARLARGNSMDYWGQGTLVTVSS VL: DIQMTQSPSSLSASVGDRVTITCKSSQSLLNSGNQKSYLTWYQQKPGKAPKLLIYWASTLESGVPSRFSGSGSGTDYTLTISSLQPEDFATYYCQNAYFFPFTFGQGTKVEIKR ?
OUTPUT: 0.149

INPUT: Same read-out for h5C9o Fc mutation (antibody, V domains shown) VH: EVQLVESGGGLVQPGGSLRLSCAVSGYTFSMNWVRQAPGKGLEWVAWINMYTGEPTYADDFKGRFTISRDDSKNTLYLQMNSLRAEDTAVYYCARLYNGNSLDYWGQGTLVTVSS VL: DIQMTQSPSSLSASVGDRVTITCKSSQSLLNSGNQKSYLTWYQQKPGKAPKLLIYWASTLESGVPSRFSGSGSGTDYTLTISSLQPEDFATYYCQNAYSFPFTFGQGTKVEIKR ?
OUTPUT: 0.213

INPUT: Same read-out for Anti-CLDN 18.2-5C9oae (humanized antibody h5C9oae) (antibody, human IgG1, V domains shown, the general method uses human IgG1 constant domains) VH: EVQLVESGGGLVQPGGSLRLSCAVSGYTFSMNWVRQAPGKGLEWVAWINMYTGEPTYADDFKGRFTISRDDSKNTLYLQMNSLRAEDTAVYYCARLYRGNSLDYWGQGTLVTVSS VL: DIQMTQSPSSLSASVGDRVTITCKSSQSLLNSGNQKSYLTWYQQKPGKAPKLLIYWASTLESGVPSRFSGSGSGTDYTLTISSLQPEDFATYYCQNAYFFPFTFGQGTKVEIK ?
OUTPUT: 0.123
